# System: Rattus norvegicus
# measurementDescription: The compound was tested for oral delivery of calcitonin, activity is measured as reduction in serum calcium levels at 400 mg/kg and dose of calcitotin is 10 ug/kg
# Type: functional
The following compounds are listed with their measured Ca2+ reduction values.

Prompt line: Respond only with Ca2+ reduction recorded for CC(C)C[C@H](NC(=O)c1ccccc1)C(=O)O
Response line: -12.9

Prompt line: Please give the documented Ca2+ reduction of CC(C)C[C@@H](NC(=O)C1CCCCC1)C(=O)O
Response line: -18.32

Prompt line: Please look at this compound and report its Ca2+ reduction: CC(C)C[C@H](NC(=O)c1ccccc1[N+](=O)[O-])C(=O)O
Response line: -6.61

New cases:
Prompt line: Answer with reported Ca2+ reduction of CC(C)C[C@H](NC(=O)C1CCCCC1C)C(=O)O (some centres not stated)
Response line: -18.27

Prompt line: Answer with reported Ca2+ reduction of CC(C)C[C@H](NC(=O)C1CCCCC1)C(=O)O
Response line: -21.82

Prompt line: Answer with reported Ca2+ reduction of CC(C)C[C@H](NC(=O)C1CCCC(C)C1)C(=O)O (some centres not stated)
Response line: -13.69

Prompt line: Indicate the recorded Ca2+ reduction value for this compound: CC(C)C[C@H](NC(=O)c1cccc([N+](=O)[O-])c1)C(=O)O
Response line: -14.5
